Molecular target: Solute carrier family 2, facilitated glucose transporter member 1 (Homo sapiens) (UniProt P11166)
Sequence (P11166 whole entry): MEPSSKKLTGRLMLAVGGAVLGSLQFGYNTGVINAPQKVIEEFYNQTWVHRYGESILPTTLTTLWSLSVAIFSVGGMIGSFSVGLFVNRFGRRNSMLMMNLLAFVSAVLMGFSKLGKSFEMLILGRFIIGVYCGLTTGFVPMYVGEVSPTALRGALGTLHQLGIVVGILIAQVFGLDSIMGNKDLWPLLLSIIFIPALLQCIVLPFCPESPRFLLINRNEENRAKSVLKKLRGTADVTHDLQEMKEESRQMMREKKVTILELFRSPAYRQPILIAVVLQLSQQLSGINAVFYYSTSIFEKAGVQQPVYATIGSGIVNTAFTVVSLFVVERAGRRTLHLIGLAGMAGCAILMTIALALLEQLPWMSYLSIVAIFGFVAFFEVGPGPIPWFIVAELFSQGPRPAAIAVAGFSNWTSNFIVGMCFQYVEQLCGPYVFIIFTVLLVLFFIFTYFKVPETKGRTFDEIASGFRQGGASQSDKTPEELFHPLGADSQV
Test: ST_JUDE_LEISH: Cytotoxicity at 2uM final concentration against transgenic Leishmania Mexicana promastigotes LmGLUT1 that are glucose transport deficient and complemented with the human glucose transporter GLUT1. Activity is measured by DNA content using SYBR green in vitro
Format: functional
parameterMeasured: inhibition (%)
Answers are plain numbers, in %.

Record excerpt, results attached:
COc1cc(Cc2cnc(N)nc2N)cc(OCC(C)(C)C(=O)O)c1OC; -1.6
NC(=O)c1ccccc1OCC(=O)Nc1cccc(-c2cccc(-c3nc4ccccc4[nH]3)c2)c1; 0.34
CC(C(=O)Nc1ccc(Br)cc1Br)N1CCN(C(=O)c2ccco2)CC1 (centres undefined); -0.66
CC(C)CCN1CCC(Oc2cccc(NC(=O)c3ccc(C(F)(F)F)cc3)c2)CC1; 1.54

Batch request: inhibition for each of the following molecules.
1. COc1ccc(NC(=O)[C@H](Cc2ccccc2)Nc2cc(C)nc(NCCc3ccccc3)n2)cc1
2. Cc1ccc(C)c(Cn2c(N3CCC(C(=O)NCc4cccs4)CC3)nc3ccccc32)c1

(A)
1. 5.74
2. 3.18

---

Molecular target: Hexose transporter 1 (Plasmodium falciparum) (UniProt O97467)
Assay: ST_JUDE_LEISH: Cytotoxicity at 2uM final concentration against transgenic Leishmania Mexicana promastigotes LmPfHT that are glucose transport deficient and complemented with the Plasmodium falciparum hexose transporter. Activity is measured by DNA content using SYBR green in vitro
Type: functional
parameterMeasured: inhibition (%)
Answers are plain numbers, in %.

COc1ccc(S(=O)(=O)NCCC2CCN(CCCCCNC(=O)C=Cc3ccc(Cl)c(Cl)c3)CC2)cc1; 2.12

Batch request: inhibition for each of the following molecules.
1. N#Cc1ccc(CNCCCCCCCNCc2ccc(-c3ccccc3)cc2)cc1
2. CCOC(=O)c1cc(C(=O)NCCCCN2CCC(c3cn(C)c4ccccc34)CC2)ccc1-c1ccc(C(F)(F)F)cc1
3. c1cc(CNCC2CCCO2)cc(-c2ccc(-c3nc4ccccc4[nH]3)s2)c1 (stereo not given)
4. Cc1cccc2nc(-c3ccc(-c4cccc(NC(=O)Nc5ccc(Cl)c(Cl)c5)c4)s3)[nH]c12

(A)
1: 5.01; 2: 2.2; 3: -3.37; 4: -0.11

---

Target: Hexose transporter 1 (Plasmodium falciparum)
Experiment: ST_JUDE_LEISH: Cytotoxicity at 2uM final concentration against transgenic Leishmania Mexicana promastigotes LmPfHT that are glucose transport deficient and complemented with the Plasmodium falciparum hexose transporter. Activity is measured by DNA content using SYBR green in vitro
Format: functional
Provide the recorded inhibition for the entries that follow.
Give bare numbers, in %.

Record excerpt, results attached:
CC(C)(C)CC(=O)Nc1ccc(Nc2cc(-c3ccncc3)cc3ncc(C(N)=O)cc23)cc1; 1.53
Cc1cc(N2CCCCC2)nc2ccc(NC(=O)c3cncc(Br)c3)cc12; 9.8
CC1CCC2(CC1)NC(N)=NC(=N)N2OCCCCCCCCO (stereo not given); 4.43
Cc1nnc(-c2ccc3ccccc3c2)c2cn(-c3cccc([N+](=O)[O-])c3)nc12; 3.95
O=[N+]([O-])c1cccc(/C=N/Nc2ccnc3ccc(C(F)(F)F)cc23)c1; 2.45
C=CCOc1ccc2ccccc2c1CNCCCCCCNCc1c(OCC=C)ccc2ccccc12; 5.37

Batch request: inhibition for each of the following molecules.
1. COc1ccc2nccc(C(=O)NC3CCC(CCN4CCc5cc(C#N)ccc5C4)CC3)c2c1 (stereo not given)
2. CC(C)COc1ccc(Cl)cc1Cc1ccc(-c2nc3ccc(Br)cc3[nH]2)o1
3. O=C(/C=C/c1cccc2ccccc12)NCCCCCN1CCC(c2c[nH]c3ccccc23)CC1
4. O=S(=O)(NCCN1CCCC1)c1ccc(-c2cccc(CNCc3ccc(F)cc3)c2)cc1

(A)
1: 5.23; 2: 5.74; 3: 1.35; 4: 1.09

---

Target: Solute carrier family 2, facilitated glucose transporter member 1 (Homo sapiens) (UniProt P11166)
Test: ST_JUDE_LEISH: Cytotoxicity at 2uM final concentration against transgenic Leishmania Mexicana promastigotes LmGLUT1 that are glucose transport deficient and complemented with the human glucose transporter GLUT1. Activity is measured by DNA content using SYBR green in vitro
Format: functional
parameterMeasured: inhibition (%)
One number for each entry, in %.

CCOc1ccc(C(=O)Nc2nonc2-c2ccc(OC)c(OC)c2)cc1; -0.49
COc1ccc(-c2nonc2NC(=O)c2ccc(C(C)(C)C)cc2)cc1OC; -0.32
FC(F)(F)c1cccc(Nc2nc(-n3ccnc3)nc(-n3ccnc3)n2)c1; 1.93
COc1ccccc1NC(=S)N/N=C/c1ccc(O)cc1O; 1.28
Cc1[nH]cc(Br)c(=O)c1-c1ccc(Oc2ccccc2)cc1; 2.07

Now for a further molecule.
(Q) Need inhibition, item COc1cc(OC)c(NC(=O)C2c3ccccc3C(=O)N(C)C2c2cccs2)cc1Cl (stereo unspecified)
(A) 2.2

---

Provide the recorded inhibition for the entries that follow.
Target: Solute carrier family 2, facilitated glucose transporter member 1 (Homo sapiens) (UniProt P11166)
Assay: ST_JUDE_LEISH: Cytotoxicity at 2uM final concentration against transgenic Leishmania Mexicana promastigotes LmGLUT1 that are glucose transport deficient and complemented with the human glucose transporter GLUT1. Activity is measured by DNA content using SYBR green in vitro
Format: functional
Give bare numbers, in %.

Batch request: inhibition for each of the following molecules.
1. CCOC(=O)c1nc2ccc(SC3CCCCC3)cn2c1Br
2. OC(c1ccc2ccccc2c1)C1CN(CCc2ccccc2)CCC1(O)c1ccccc1 (stereo not given)
3. COc1ccccc1-n1ccnc1SCC(=O)Nc1cc(C(F)(F)F)ccc1Cl
4. O=C(Nc1ccc(OC2CCN(Cc3ccsc3)CC2)c(Cl)c1)c1cccs1
5. CCOC(=O)C1CCN(CCCNC(=O)/C(=C/C=C/c2cc3cc(Cl)c(Cl)cc3[nH]2)OC)CC1
6. c1ccc(-c2cc(NCCCn3ccnc3)nc(-c3cccnc3)n2)cc1

(A)
1.75
0.49
-3.59
7.63
-1.12
2.2

Batch request: inhibition for each of the following molecules.
1. CCCCOc1cc2ncc(C(=O)OCC)c(O)c2cc1OCCCC
2. Oc1cccc(Nc2ccnc3cc(-c4nccs4)ccc23)c1
3. O=C(/C=C/c1ccc(Cl)c(Cl)c1)NCCCCCN1CCC(NC(=O)Nc2cccc(Cl)c2Cl)CC1

(A)
1. 0.09
2. -0.6
3. -2.33

(Q) Need inhibition, item O=C(Nc1cccc(-c2nn3ccccc3c2-c2ccnc(Nc3cccc(C(F)(F)F)c3)n2)c1)c1c(F)cccc1F
(A) 0.32

---

Target: Solute carrier family 2, facilitated glucose transporter member 1 (Homo sapiens) (UniProt P11166)
Test: ST_JUDE_LEISH: Cytotoxicity at 2uM final concentration against transgenic Leishmania Mexicana promastigotes LmGLUT1 that are glucose transport deficient and complemented with the human glucose transporter GLUT1. Activity is measured by DNA content using SYBR green in vitro
Format: functional
Provide the recorded inhibition for the entries that follow.
One number for each entry, in %.

Record excerpt, results attached:
COc1c(C2CCN(CCCCNC(=O)c3ccc(C)c(-c4ccc(C(F)(F)F)cc4)c3)CC2)ccc2c1CCCC2; -1.99
CCc1cn(C)c2c(N3CCCC3=O)cc(C(=O)N[C@@H](Cc3ccccc3)[C@H](O)CNC(C)(C)c3cccc(C(F)(F)F)c3)cc12; 4.78
Cc1noc(C)c1-c1ccc2c(Nc3ccc(C#N)cc3)c(C(N)=O)cnc2c1; 4.95

Batch request: inhibition for each of the following molecules.
1. COC(=O)c1ccccc1COc1ccc(CC2(NC(=O)[C@H](Nc3ccc(C#N)c4ccccc34)C(C)(C)C)CCCC2)cc1
2. CS(=O)(=O)CCNCc1ccc(-c2ccc3c(Nc4ccc(Cl)cc4F)ccnc3c2)o1
3. COc1ccc(NC(=O)c2cc(NC(=O)C3(N)CC3)c(=O)n(Cc3ccc(C(N)=O)cc3)c2)cc1
4. CC(C)c1nc2c(N)nc(N)nc2nc1N
5. O=C(Nc1ccc(Cl)c(C(F)(F)F)c1)N[C@H]1CCN(CCCCCNC(=O)C2CC2c2ccc(Cl)c(Cl)c2)C1 (some centres undefined)

(A)
1. 4.44
2. 2.59
3. 0.5
4. -0.33
5. -1.57

(Q) Need inhibition, item CCCCCCNC(=O)C1Cc2c([nH]c3ccc(C)cc23)C2(CCN(CCc3ccccc3)CC2)N1 (centres undefined)
(A) 0.36

---

Target: Solute carrier family 2, facilitated glucose transporter member 1 (Homo sapiens) (UniProt P11166)
Assay: ST_JUDE_LEISH: Cytotoxicity at 2uM final concentration against transgenic Leishmania Mexicana promastigotes LmGLUT1 that are glucose transport deficient and complemented with the human glucose transporter GLUT1. Activity is measured by DNA content using SYBR green in vitro
Type: functional
parameterMeasured: inhibition (%)
Numbers only, in %.

Record excerpt, results attached:
Cc1nc(C)c(CC(=O)Nc2ccc(-c3cccc(-c4nc5cccc(C)c5[nH]4)c3)cc2)s1; 2.82
CCN(CC)CCCn1c(N)c(-c2nc3ccccc3[nH]2)c2nc(C#N)c(C#N)nc21; 7.13
CC(=O)c1ccc(NC(=O)CSc2nc(-c3ccccc3Cl)ns2)cc1; 2.79
Cc1cccc(C(=O)NC(NC(=S)Nc2ccc([N+](=O)[O-])cc2)C(Cl)(Cl)Cl)c1 (centres undefined); 3.68
O=C(Cc1ccc([N+](=O)[O-])cc1)N1CCc2cc3nccc(N4CCN5CCC[C@@H]5C4)c3cc21; 1.21

Batch request: inhibition for each of the following molecules.
1. C=CCN(C(=O)c1ccc(Cl)c([N+](=O)[O-])c1)c1nc(-c2ccccc2)cs1
2. O=C(NC1CCCCC1)c1ccc(O)c(-c2cccc(C(F)(F)F)c2)c1
3. CC1(C)N=C(N)N=C(N)N1OCCc1ccc2ccccc2c1

(A)
10.6
2.06
1.63

(Q) Need inhibition, item CCc1nnc2sc(-c3cccc(NC(=O)c4ccc(OC)c(Cl)c4)c3)nn12
(A) 1.05
